- Target Under Test: recombinant human baculovirus-expressed GST-tagged FASN (Homo sapiens, UniProt P49327)
- Construct: GST
- Sequence (P49327 whole entry): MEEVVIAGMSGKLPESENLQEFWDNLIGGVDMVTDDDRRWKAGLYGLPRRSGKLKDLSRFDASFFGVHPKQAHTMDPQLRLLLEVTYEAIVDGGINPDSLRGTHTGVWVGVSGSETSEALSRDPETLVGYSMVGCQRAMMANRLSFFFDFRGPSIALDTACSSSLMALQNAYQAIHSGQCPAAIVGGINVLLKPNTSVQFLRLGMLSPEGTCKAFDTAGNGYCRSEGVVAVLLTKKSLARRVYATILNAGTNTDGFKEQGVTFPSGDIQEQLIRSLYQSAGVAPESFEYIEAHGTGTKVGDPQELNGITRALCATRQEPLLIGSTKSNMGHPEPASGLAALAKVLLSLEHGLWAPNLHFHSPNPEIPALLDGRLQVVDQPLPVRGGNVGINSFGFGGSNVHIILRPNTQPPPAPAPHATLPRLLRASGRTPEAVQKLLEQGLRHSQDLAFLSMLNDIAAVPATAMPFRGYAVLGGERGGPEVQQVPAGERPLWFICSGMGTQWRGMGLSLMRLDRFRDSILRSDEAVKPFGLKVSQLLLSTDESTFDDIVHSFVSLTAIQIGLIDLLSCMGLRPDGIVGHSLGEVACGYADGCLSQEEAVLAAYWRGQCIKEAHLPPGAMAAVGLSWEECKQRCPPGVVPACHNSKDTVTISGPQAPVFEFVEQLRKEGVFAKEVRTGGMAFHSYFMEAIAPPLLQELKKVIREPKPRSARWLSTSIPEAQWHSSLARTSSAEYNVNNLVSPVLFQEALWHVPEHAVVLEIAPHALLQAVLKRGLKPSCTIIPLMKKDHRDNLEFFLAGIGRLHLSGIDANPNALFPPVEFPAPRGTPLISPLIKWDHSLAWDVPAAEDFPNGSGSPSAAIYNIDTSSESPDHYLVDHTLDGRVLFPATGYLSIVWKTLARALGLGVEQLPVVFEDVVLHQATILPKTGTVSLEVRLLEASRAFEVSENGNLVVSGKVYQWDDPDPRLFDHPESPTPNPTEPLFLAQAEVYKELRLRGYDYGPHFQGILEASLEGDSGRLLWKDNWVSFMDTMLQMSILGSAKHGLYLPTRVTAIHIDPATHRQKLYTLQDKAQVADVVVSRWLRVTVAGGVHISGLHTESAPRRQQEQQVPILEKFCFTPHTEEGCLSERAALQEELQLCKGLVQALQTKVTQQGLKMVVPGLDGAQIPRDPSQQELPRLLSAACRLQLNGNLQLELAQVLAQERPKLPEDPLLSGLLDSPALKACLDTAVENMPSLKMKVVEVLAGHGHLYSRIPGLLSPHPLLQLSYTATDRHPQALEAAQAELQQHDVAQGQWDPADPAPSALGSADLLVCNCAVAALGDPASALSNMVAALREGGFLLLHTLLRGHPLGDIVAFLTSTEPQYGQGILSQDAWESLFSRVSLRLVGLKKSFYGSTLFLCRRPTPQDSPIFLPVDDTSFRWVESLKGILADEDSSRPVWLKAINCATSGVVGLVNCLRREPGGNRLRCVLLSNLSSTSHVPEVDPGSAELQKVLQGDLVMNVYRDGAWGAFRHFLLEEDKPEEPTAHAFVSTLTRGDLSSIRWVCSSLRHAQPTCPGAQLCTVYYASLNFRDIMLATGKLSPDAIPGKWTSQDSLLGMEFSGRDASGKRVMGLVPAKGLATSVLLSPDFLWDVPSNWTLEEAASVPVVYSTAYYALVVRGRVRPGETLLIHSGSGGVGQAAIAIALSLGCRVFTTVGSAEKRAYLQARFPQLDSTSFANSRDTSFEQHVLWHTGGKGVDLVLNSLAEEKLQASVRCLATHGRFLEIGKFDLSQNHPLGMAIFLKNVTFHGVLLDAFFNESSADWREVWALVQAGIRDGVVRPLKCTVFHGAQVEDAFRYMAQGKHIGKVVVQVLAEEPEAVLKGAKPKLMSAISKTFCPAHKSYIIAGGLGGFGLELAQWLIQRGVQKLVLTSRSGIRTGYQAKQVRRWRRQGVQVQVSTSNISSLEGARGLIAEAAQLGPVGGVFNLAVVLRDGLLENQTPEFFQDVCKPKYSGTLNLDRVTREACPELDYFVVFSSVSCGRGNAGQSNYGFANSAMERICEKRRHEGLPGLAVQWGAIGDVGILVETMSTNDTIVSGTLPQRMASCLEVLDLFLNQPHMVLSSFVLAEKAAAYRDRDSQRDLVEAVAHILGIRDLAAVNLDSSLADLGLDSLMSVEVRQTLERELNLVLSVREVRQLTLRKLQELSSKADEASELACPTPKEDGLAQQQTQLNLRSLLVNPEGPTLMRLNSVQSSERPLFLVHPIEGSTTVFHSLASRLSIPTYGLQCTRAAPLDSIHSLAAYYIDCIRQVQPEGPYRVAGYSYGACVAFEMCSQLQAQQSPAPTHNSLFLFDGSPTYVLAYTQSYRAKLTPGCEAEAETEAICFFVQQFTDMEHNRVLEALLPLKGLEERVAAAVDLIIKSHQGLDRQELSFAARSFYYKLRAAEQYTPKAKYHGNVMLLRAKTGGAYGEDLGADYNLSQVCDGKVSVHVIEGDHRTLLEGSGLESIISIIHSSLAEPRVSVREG
- Procedure Text: FASN enzyme activity assay, fluorescence-based detection of CoA with CPM
- Assay type: biochemical
- Measurement Context: 5 nM FASN, 150 μM NADPH, 10 μM acetyl-CoA, 25 μM malonyl-CoA, 90 minutes incubation; read-out: IC50 data for Compounds of Formulae I-V/V(a): Activity
pIC50: −log10 of the molar value. Where a name gives a salt, the structure may show the parent alone.
Observable: pIC50

# example entries with known answers
Compound: Cc1c(-c2ccc(OC3CCN(C(=O)[C@H]4CCCO4)C(C)C3)cc2)ccc2cccnc12 (mixture of isomers) [Example 362, HCl]
pIC50: 7.00 to 9.00
--
Compound: CCC(=O)N1CCC(Oc2ccc(-c3ccc4cccnc4c3F)cc2)CC1
pIC50: 7.00 to 9.00
--
Compound: O=C(C1CC(F)(F)C1)N1CCC(Oc2ccc(-c3cnc4ccccc4c3)cc2)CC1
pIC50: 5.00 to 6.00

Next, consider the following compound.
QUERY: Find the measured pIC50: item O=C(C1CC1)N1CCC(Oc2ncc(-c3cnc4ccccc4c3)cn2)CC1 , target or system recombinant human baculovirus-expressed GST-tagged FASN (Homo sapiens, UniProt P49327).
RESULT: 5.00 to 6.00

---

- Target Under Test: recombinant human baculovirus-expressed GST-tagged FASN (Homo sapiens)
- Construct: GST
- Procedure Text: FASN enzyme activity assay, fluorescence-based detection of CoA with CPM
- Assay type: biochemical
- Measurement Context: 5 nM FASN, 150 μM NADPH, 10 μM acetyl-CoA, 25 μM malonyl-CoA, 90 minutes incubation; read-out: IC50 data for Additional Compounds of Formulae I-V(a): Activity
Structures can show the parent of a compound that is named as a salt.
Observable: IC50

QUERY: // query IC50 value for entry Cc1c(-c2ccc(OC3CCN(C(=O)NO)CC3)cc2)ccc2cccnc12 [Example 554, HCl]
RESULT: 1000 to 10000 nM

QUERY: // query IC50 value for entry Cc1c(-c2ccc(OC3CCN(C(=O)NOCC(C)C)CC3)cc2)ccc2nccn12 [Example 601]
RESULT: 1 to 99 nM

QUERY: // query IC50 value for entry CCONC(=O)N1CCC(Oc2ccc(-c3ccc4nccn4c3C)cc2)CC1 [Example 608]
RESULT: 100 to 999 nM

QUERY: // query IC50 value for entry Cc1c(-c2ccc(OC3CCN(C(N)=O)CC3)cc2)ccc2nccn12 [Example 615]
RESULT: 1000 to 10000 nM

QUERY: // query IC50 value for entry Cc1nccc2cc(-c3ccc(OC4CCN(C(=O)NOC(C)C)CC4)cc3)ccc12 [Example 583]
RESULT: 1 to 99 nM

QUERY: // query IC50 value for entry Cc1c(-c2ccc(OC3CCN(C(=O)NCC(C)C)CC3)cc2)ccc2ccnn12 [Example 633]
RESULT: 1 to 99 nM

QUERY: // query IC50 value for entry Cc1c(-c2ccc(OC3CCN(C(=O)NC4CCOCC4)CC3)cc2)ccc2cccnc12 [Example 549, HCl]
RESULT: 1000 to 10000 nM

QUERY: // query IC50 value for entry Cc1c(-c2ccc(OC3CCN(C(=O)SC(C)C)CC3)cc2)ccc2cccnc12 [Example 618]
RESULT: 1000 to 10000 nM
